# SYSTEM: PI3Kδ (p110δ/p85α) Recombinant Human Protein (Homo sapiens (Human), UniProt O00329)
# Sequence (O00329 whole entry): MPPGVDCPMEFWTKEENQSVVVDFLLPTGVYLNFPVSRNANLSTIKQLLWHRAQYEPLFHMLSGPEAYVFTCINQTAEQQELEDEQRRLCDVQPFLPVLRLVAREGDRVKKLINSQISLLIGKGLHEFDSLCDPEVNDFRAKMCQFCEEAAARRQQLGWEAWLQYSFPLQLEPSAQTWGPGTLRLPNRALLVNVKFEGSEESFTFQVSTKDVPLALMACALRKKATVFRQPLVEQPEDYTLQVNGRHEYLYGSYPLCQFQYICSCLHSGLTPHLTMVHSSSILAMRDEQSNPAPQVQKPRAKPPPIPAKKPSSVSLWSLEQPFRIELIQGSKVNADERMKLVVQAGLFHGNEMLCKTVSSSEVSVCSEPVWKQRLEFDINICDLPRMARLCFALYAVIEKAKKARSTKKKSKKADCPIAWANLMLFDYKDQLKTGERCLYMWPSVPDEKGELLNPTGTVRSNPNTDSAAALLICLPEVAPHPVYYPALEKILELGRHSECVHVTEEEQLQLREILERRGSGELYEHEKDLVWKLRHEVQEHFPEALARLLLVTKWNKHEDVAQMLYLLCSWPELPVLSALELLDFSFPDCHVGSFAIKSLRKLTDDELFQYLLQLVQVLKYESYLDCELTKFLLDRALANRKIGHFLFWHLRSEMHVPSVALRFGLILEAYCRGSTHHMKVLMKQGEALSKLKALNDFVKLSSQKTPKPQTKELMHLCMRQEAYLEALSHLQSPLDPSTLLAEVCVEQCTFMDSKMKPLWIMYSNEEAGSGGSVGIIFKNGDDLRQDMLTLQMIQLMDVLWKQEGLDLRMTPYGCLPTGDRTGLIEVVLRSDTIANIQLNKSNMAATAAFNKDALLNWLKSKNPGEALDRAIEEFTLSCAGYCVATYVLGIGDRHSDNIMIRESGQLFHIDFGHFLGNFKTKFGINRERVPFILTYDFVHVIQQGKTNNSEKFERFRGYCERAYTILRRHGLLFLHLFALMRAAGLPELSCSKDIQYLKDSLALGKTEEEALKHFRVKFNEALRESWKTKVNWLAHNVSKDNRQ
# Sequence (P27986 whole entry partner): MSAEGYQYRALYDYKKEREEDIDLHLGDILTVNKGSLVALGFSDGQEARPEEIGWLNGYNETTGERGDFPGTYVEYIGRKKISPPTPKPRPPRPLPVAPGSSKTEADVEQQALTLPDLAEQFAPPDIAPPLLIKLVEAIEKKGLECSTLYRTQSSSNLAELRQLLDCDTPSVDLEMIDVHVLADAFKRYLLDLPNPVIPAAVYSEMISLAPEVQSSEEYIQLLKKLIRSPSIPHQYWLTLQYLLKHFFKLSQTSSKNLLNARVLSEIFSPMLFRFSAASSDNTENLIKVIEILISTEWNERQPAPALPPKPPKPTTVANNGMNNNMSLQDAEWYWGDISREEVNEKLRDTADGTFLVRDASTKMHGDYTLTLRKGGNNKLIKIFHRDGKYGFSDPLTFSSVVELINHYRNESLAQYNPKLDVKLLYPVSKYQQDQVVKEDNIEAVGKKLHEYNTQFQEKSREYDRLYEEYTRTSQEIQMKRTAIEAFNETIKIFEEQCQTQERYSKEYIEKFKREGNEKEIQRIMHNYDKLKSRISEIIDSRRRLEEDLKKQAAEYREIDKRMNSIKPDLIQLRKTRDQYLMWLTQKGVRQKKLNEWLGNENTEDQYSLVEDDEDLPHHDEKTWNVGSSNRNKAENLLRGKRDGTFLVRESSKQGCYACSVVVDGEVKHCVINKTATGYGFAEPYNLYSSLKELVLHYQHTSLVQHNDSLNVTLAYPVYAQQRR
# EXPERIMENT: PI3Kδ scintillation proximity assay
# Type: biochemical
# RUN_PARAMETERS: 20 μM PIP2, 2 μM ATP, 3.4 nM PI3Kδ, 120 min, room temperature; read-out: PI3Kδ IC50
Structures can show the parent of a compound that is named as a salt.
QUANTITY_MEASURED: IC50

| MOLECULE | SYSTEM | IC50 |
| --- | --- | --- |
| Cc1ccc(C(C)(O)C(F)(F)F)cc1-c1cnc2c(N)nc(C(F)(F)F)nn12 (stereo not shown) [Example 1] | PI3Kδ (p110δ/p85α) Recombinant Human Protein (Homo sapiens (Human), UniProt O00329) | 100 to 500 nM |

If you can, please state the reported IC50 value of Cc1ccc(C(C)(O)C(F)F)cc1-c1cnc2c(N)nc(C3CC3C(=O)N3CCN(C)CC3)cn12 (stereo not shown) [Example 77, trifluoroacetate salt] .
100 to 500 nM

If you can, please state the reported IC50 value of Cc1ccc(C(O)(C2CC2)C(F)(F)F)cc1-c1cnc2c(N)nc(C(F)(F)F)cn12 (stereo not shown) [Example 19] .
100 to 500 nM

If you can, please state the reported IC50 value of Cc1nc(N)c2ncc(-c3cc(C(C)(O)C(F)(F)F)ccc3C)n2n1 (stereo not shown) [Example 2] .
500 to 2000 nM

If you can, please state the reported IC50 value of [2H]C([2H])([2H])n1nccc1-c1cn2c(-c3cc(C(C)(O)C(F)F)ccc3C)cnc2c(N)n1 (single isomer, unassigned) [Example 25, trifluoroacetate salt] .
100 to 500 nM

If you can, please state the reported IC50 value of Cc1ccc(C(C)(O)C(F)(F)F)cc1-c1cnc2c(N)nc(-c3ccnc(CO)c3)cn12 (single isomer, unassigned) [Example 11] .
< 100 nM

If you can, please state the reported IC50 value of [2H]C([2H])([2H])c1ccc(C(O)(C(C)(C)O)C(F)(F)F)cc1-c1cnc2c(N)nc(C(F)(F)F)cn12 (racemic) [Example 235, trifluoroacetate salt] .
100 to 500 nM

###

# SYSTEM: PI3Kγ (p110γ) Recombinant Human Protein (Homo sapiens (Human), UniProt P48736)
# Sequence (P48736 whole entry): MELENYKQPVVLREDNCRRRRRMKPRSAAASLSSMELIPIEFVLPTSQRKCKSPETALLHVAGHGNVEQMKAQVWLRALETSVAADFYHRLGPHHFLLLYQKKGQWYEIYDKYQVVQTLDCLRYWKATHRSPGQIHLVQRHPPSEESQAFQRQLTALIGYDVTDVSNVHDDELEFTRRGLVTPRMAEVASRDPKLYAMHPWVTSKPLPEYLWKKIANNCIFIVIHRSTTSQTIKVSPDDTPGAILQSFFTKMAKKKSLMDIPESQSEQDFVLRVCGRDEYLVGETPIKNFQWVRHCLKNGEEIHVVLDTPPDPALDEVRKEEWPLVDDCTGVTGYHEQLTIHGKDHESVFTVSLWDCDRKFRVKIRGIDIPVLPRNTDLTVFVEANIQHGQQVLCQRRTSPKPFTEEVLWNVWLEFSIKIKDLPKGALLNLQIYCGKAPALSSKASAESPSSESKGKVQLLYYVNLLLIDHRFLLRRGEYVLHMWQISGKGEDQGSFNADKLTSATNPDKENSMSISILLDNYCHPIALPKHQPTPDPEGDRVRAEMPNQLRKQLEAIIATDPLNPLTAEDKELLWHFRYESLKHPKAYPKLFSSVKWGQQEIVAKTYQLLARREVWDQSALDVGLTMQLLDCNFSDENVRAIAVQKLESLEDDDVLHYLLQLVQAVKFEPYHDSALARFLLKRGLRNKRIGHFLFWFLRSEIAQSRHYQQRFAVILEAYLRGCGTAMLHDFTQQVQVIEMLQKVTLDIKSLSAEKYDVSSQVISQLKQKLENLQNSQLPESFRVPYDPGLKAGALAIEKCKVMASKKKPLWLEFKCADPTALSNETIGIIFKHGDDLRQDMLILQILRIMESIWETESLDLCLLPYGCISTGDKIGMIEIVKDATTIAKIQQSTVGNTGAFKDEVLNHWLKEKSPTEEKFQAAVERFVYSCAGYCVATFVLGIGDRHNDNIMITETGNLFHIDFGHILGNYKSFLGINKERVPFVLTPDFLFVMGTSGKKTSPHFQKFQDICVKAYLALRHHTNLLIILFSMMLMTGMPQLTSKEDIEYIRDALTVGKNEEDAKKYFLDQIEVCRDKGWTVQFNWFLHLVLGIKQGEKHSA
# EXPERIMENT: PI3K-γ scintillation proximity assay
# RUN_PARAMETERS: 20 μM PIP2, 2 μM ATP, 13 nM PI3Kγ, 120 min, room temperature
pIC50: −log10 of the molar value. Where a name gives a salt, the structure may show the parent alone.
Documented pIC50 across a set of compounds

| COMPOUND | pIC50 |
| --- | --- |
| Cc1ccc(C(O)(CNC(=O)c2ccccc2)C(F)(F)F)cc1-c1cnc2c(N)nc(C(F)(F)F)cn12 (centres unmarked) [Example 212, trifluoroacetate salt] | > 7.00 |
| Cc1ccc(C(O)(C(=O)NC2(C)CNC2)C(F)(F)F)cc1-c1cnc2c(N)nc(C(F)(F)F)cn12 (centres unmarked) [Example 128, trifluoroacetate salt] | > 7.00 |
| Cc1ccc(C(O)(C(N)=O)C(F)(F)F)cc1-c1cnc2c(N)nc(C(F)(F)F)cn12 (centres unmarked) | > 7.00 |

Recall the recorded pIC50 for CNCCC(O)(c1ccc(C)c(-c2cnc3c(N)nc(C(F)(F)F)cn23)c1)C(F)(F)F (single isomer, unassigned) [Example 15] with PI3Kγ (p110γ) Recombinant Human Protein (Homo sapiens (Human), UniProt P48736) and state it.
> 7.00

Recall the recorded pIC50 for CC(O)(c1cc(-c2cnc3c(N)nc(C(F)(F)F)cn23)c2ccn(S(=O)(=O)c3ccccc3)c2c1)C(F)(F)F (racemic) with PI3Kγ (p110γ) Recombinant Human Protein (Homo sapiens (Human), UniProt P48736) and state it.
6.30 to 7.00

Recall the recorded pIC50 for Cc1ccc(C(C)(O)C(F)(F)F)cc1-c1cnc2c(N)nc(-c3ccnc(CO)c3)cn12 (single isomer, unassigned) [Example 11] with PI3Kγ (p110γ) Recombinant Human Protein (Homo sapiens (Human), UniProt P48736) and state it.
> 7.00

All figures here come from patent US10738057B2.
